Target: T1, recombinant human Tau monomer, 2N4R isoform (amino acids 2-441) (human, UniProt P10636-8 2-441)
T1 construct: range 2-441; N-terminal His-tag removed with TEV protease; also called monomeric Tau
T1 sequence (P10636 other isoform, or with tags, fused parts or gaps limits assumed): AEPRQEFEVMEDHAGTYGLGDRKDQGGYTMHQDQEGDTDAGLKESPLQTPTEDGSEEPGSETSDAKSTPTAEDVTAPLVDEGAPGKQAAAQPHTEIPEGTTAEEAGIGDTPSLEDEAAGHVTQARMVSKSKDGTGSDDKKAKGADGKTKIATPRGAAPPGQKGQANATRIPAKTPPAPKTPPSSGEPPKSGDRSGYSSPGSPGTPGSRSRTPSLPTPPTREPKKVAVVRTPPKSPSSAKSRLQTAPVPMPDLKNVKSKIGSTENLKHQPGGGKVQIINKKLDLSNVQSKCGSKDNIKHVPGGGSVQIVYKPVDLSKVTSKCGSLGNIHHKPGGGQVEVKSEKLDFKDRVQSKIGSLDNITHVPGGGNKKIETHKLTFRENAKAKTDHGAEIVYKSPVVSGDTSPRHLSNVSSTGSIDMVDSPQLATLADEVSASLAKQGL
Experiment: SPR, captured IgG, Tau monomer analyte, 1:1 model; fit-quality column: Yes
Method: Briefly, IgGs in 1 mL culuture were captured using tip columns that were custom packed with 20 μL MabSelect SuRe resin (Glygen Corp & GE Healthcare). […] The antibodies were assessed using a human antibody capture CM5 Series S chip generated using the GE Biacore human IgG capture kit and a Biacore T200 instrument. […] Binding to Tau monomer at 0 nM, 26.5 nM and 265 nM, at 25° C., using a flow rate of 40 μl/min, was monitored for a 180 second association phase followed by a 300 second dissociation phase. […]
Reported Metric: pKd
Kindly note that pKd refers to -log10 of the concentration in mol/L and answer with the value alone.

Binder	pKd
hu37D3.v29.10 (antibody, V domains shown) VH: EVQLVESGGGLVQPGGSLRLSCAASGLIFRSYGMSWVRQAPGKGLEWVATINSGGTYTYYPDSVKGRFTISRDNSKNTLYLQMNSLRAEDTAVYYCANSYSGAMDYWGQGTLVTVSS VL: EDVLTQTPLSLPVTPGQPASISCRSSQSIVHSNAETYFEWYLQKPGQSPQLLIYKVSNRFSGVPDRFSGSGSGTDFTLKISRVEAEDVGVYYCFQGSLVPWTFGQGTKVEIK	7.76

Enquiry: Which pKd value is on record for hu37D3.v29.7 (antibody, V domains shown) VH: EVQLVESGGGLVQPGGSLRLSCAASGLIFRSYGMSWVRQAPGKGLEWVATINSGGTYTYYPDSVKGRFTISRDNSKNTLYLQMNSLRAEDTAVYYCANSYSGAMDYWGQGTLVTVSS VL: EDVLTQTPLSLPVTPGQPASISCRSSQSIVHSNGLTYFEWYLQKPGQSPQLLIYKVSNRFSGVPDRFSGSGSGTDFTLKISRVEAEDVGVYYCFQGSLVPWTFGQGTKVEIK ?
Return: 8.34

Enquiry: Please give the measured pKd for this binder: hu37D3.v28.D1 (antibody, V domains shown) VH: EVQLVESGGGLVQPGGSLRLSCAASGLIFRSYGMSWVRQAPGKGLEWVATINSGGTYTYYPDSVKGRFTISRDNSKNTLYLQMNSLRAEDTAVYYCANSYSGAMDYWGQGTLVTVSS VL: DDVLTQTPLSLPVTPGQPASISCRSSQSIVHANGNTYFEWYLQKPGQSPQLLIYKVSNRFSGVPDRFSGSGSGTDFTLKISRVEAEDVGVYYCFQGSLVPWTFGQGTKVEIK
Return: 8.24

From: patent US20190367592A1
